molecular target: SUV39H2 (Homo sapiens (Human)); assay: biochemical; format: biochemical; conditions: 3H-SAM 100 nM, H3 Histone Peptide 350 nM, room temperature 3 hours
Sequence (Q9H5I1 whole entry): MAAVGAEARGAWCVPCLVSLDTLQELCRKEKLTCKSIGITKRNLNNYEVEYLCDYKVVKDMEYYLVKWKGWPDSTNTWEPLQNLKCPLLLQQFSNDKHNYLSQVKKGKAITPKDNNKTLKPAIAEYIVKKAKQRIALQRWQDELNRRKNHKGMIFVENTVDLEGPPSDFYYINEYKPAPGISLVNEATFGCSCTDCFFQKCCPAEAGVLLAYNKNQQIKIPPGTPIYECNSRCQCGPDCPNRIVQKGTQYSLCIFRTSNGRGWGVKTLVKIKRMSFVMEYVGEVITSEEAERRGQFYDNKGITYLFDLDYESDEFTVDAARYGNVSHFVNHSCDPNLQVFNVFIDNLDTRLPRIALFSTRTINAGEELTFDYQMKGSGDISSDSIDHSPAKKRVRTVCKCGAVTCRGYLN
Assign IC50 to each entry below.
Entry rule: numbers only, all in nM.

-- ask Requested field: IC50. Item: COc1cc(OC)c(-c2cn3ccc(N[C@H]4CC[C@@H](NCc5ccc([N+](=O)[O-])cc5)CC4)cc3n2)cc1Cl [Example 411]
-- reply 26.3

-- ask Let us now turn to COc1cc(OC)c(-c2cn3ccc(N4CCN(c5nc(N)nc(Cl)n5)CC4)cc3n2)cc1Cl [Example 361]
-- reply 43.3

-- ask Ok, now COc1cc(OC)c(-c2cn3ccc(N[C@H]4CC[C@H](Nc5nccc(N6CCN(C)CC6)n5)CC4)cc3n2)cc1Cl [Example 398]
-- reply 23.3

-- ask Same lookup for COc1cc(OC)c(-c2cn3ccc(N4CCN(c5cc(C)ccn5)CC4)cc3n2)cc1Cl [Example 327] , please.
-- reply 46.7

-- ask Request: COc1cc(OC)c(-c2cn3ccc(N4CCC(Nc5ccncn5)CC4)cc3n2)cc1Cl [Example 374]
-- reply 31.4

-- ask One more molecule: COc1cc(OC)c(-c2cn3ccc(N4CC[C@H](NCc5ccc(N(C)C(=O)OC(C)(C)C)cc5)C4)cc3n2)cc1Cl [Example 394]
-- reply 10.3

-- ask Also COc1cc(OC)c(-c2cn3ccc(N[C@H]4CC[C@@H](NCc5cccc(C#N)c5)CC4)cc3n2)cc1Cl [Example 371] , if possible.
-- reply 16.1

###

What IC50 was measured for each of the following?
molecular target: SUV39H2 (Homo sapiens (Human)); experiment: biochemical
Return type: number; implicit unit nM.

-- ask Using the record for "CCCS(=O)(=O)NC1CCN(c2ccn3cc(-c4cc(Cl)c(OC)cc4OC)nc3n2)CC1" , report its IC50.
-- reply 32.7

-- ask Next up: "COc1cc(OC)c(-c2cn3ccc(N4CCN(C(C)C)CC4)cc3n2)cc1Cl"
-- reply 15.4

###

Give IC50 for every item shown.
system: HFL1; experiment: Cell-based assay, anti-proliferative activity (Cell Counting Kit-8, 72 hours); conditions: Homo sapiens, HFL1, 72 h, read-out: IC50 (μM) HFL1
Counter-ions that a name gives are not always drawn.
Express the result in µM but write the number alone.

-- ask For COc1cc(OC)c(-c2cn3ccc(N4CCC(CN)CC4)nc3n2)cc1Cl [Example 31, hydrochloride] , what is its reported IC50?
-- reply 9.3

-- ask And what about the molecule "COc1cc(OC)c(-c2cn3ccc(NC(=O)[C@@H](N)C(C)C)cc3n2)cc1Cl" ?
-- reply 5.9

-- ask Item: COc1cc(OC)c(-c2cn3ccc(N4CC[C@H](N)C4)nc3n2)cc1Cl [Example 58, hydrochloride]
-- reply 6.2

-- ask Also, COc1cc(OC(C)C)c(-c2cn3ccc(N4CC[C@H](N)C4)cc3n2)cc1Br [Example 59, hydrochloride] please.
-- reply 1.8

-- ask Now try COc1cc(OC)c(-c2cn3ccc(N4CC[C@@H](N)C4)nc3n2)cc1Cl [Example 55, hydrochloride] .
-- reply 4.8

-- ask Another: "COc1cc(OC)c(-c2cn3ccc(N4CCOCC4)cc3n2)cc1C#N"
-- reply 9.6

-- ask Same thing, different molecule: COc1cc(OC)c(-c2cn3ccc(N)nc3n2)cc1Br [Example 2, hydrochloride]
-- reply 16

-- ask Param item: CNC1CCN(c2ccn3cc(-c4cc(Cl)c(OC)cc4OC)nc3c2)CC1 [Example 24, hydrochloride]
-- reply 2.7
